- TEST_DETAILS: chemical genetic growth profiling, strain panel (AID 1159580);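 further: tested at 20 µM; growth read once vehicle control cultures reached saturation at 30 °C; 1 = growth at the plate median or of vehicle wells; lower values mean less growth of the strain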
- CONDITION_DESCRIPTION: S. cerevisiae deletion strains, growth OD, locus YBL105C, strain PKC1, active compounds read low
Out of some 5,500 compounds screened, about 2,000 (36%) were called active. Roughly 18% stayed inconclusive and do not appear here. The list shows a part of the results.
QUANTITY_MEASURED: normalized growth

MOLECULE	normalized growth
Cc1ccccc1C(=O)Oc1ccc(C(F)(F)F)cc1[N+](=O)[O-]	0.969 (inactive)
CS(=NC(=O)c1cccc(Cl)c1)c1ccc(OC(=O)c2ccc(Cl)cc2)cc1 (stereo not drawn)	0.966 (inactive)
O=C(N/C=C/c1ccsc1)Nc1cc(C(F)(F)F)cc(C(F)(F)F)c1	0.967 (inactive)

Bench note: what normalized growth did CSC1=NNC(c2nn(C)cc2Cl)S1 (stereo not drawn) show? 0.509 (active)

If you can, please state the reported normalized growth value of N#CC(C#N)=C(SCc1c(Cl)cccc1Cl)SCc1c(Cl)cccc1Cl . 0.981 (inactive)

Would you kindly share the measured normalized growth for Cc1nn(Cc2cccc(C(=O)Nc3ccc(Cl)cc3)c2)c(C)c1Br ? 0.976 (inactive)

Which normalized growth value is on record for COc1cc2c(cc1OC)C(C)N(C(=O)c1sc3ccccc3c1Cl)CC2 (stereo not drawn) ? 0.975 (inactive)

Which measured normalized growth value corresponds to O=S(=O)(Nc1cccc(CCc2ccccn2)c1)c1cc(Cl)c(Cl)cc1Cl ? 0.977 (inactive)

Consider the molecule Nc1ccccc1SCc1c(Cl)cccc1Cl and give its measured normalized growth. 0.947 (inactive)

Give its normalized growth value. Item: Cc1cc(C(=O)Nc2ccc(Cl)cc2)nn1C(C)(C)C 1 (inactive)

Record request: normalized growth value, item Cc1ccc2nc(-c3ccc(Cl)cc3)cn2c1 0.97 (inactive)

// returns reported normalized growth for input CC(C)(C)CN/C(C#N)=C(/C#N)NCc1cccc(Cl)c1 0.991 (inactive)

Request the reported normalized growth associated with CC(=O)CSc1nnc(-c2ccc(C(C)(C)C)cc2)n1-c1ccc(Cl)cc1 0.974 (inactive)

Source: PubChem BioAssay AID1159580
